target: SYK (Homo sapiens); experiment: Kinase profiling SYK; format: biochemical; conditions: 100 micromolar inhibitor concentration; 100 is no change
Consider the following compounds and their measured residual kinase activity, SYK readings.
Value Type: residual kinase activity, SYK

INSERT INTO assay_data (compound, value_type, result_value) VALUES
  ('COc1ccc2nc(NC(=O)c3ccccc3)sc2c1', 'residual kinase activity, SYK', 109),
  ('O=C(Nc1nc2ccc(F)cc2s1)c1ccccc1', 'residual kinase activity, SYK', 117),
  ('COC(=O)c1cccc(C(=O)Nc2nc3ccc(F)cc3s2)c1', 'residual kinase activity, SYK', 79),
  ('CC(=O)Nc1nc2cc(C)ccc2s1', 'residual kinase activity, SYK', 72);
